These data points were gathered from patent US10357481B2.

Assayed target: human PDE2A1 (Homo sapiens, UniProt O00408)
Construct: GST; purchased BPS Bioscience (San Diego, Calif.) 60020; host or cells: insect cells
Sequence (O00408 1-920 isoform O00408-2): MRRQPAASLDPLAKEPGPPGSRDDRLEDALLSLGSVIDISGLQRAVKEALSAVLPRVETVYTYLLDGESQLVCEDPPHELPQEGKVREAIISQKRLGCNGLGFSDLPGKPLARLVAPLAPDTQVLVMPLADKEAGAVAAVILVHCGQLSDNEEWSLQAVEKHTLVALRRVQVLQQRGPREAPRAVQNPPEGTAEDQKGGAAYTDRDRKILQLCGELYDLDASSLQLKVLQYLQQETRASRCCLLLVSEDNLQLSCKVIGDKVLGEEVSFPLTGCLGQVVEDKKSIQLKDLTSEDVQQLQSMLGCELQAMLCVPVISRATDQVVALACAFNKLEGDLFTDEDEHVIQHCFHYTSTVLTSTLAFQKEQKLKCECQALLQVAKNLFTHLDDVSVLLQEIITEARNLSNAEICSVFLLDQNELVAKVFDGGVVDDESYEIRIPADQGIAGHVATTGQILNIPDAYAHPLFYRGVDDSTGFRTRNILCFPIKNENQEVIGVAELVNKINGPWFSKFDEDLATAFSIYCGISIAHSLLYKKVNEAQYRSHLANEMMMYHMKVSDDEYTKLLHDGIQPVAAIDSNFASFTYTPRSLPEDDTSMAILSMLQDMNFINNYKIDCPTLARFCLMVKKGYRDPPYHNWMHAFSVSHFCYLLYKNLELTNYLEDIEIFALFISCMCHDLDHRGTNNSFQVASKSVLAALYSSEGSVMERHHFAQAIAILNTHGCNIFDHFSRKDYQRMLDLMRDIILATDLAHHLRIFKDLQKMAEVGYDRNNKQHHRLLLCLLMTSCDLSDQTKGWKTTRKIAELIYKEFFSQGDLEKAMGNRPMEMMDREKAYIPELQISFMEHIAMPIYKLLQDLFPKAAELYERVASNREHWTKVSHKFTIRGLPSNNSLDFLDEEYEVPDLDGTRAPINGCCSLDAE
Measurement protocol: IMAP FP PDE selectivity panel, human PDE2A1
Type: biochemical
Condition description: Lab B; read-out: Human PDE2 Ki (nM) Lab B
Measured endpoint: Ki (nM)
Please respond with the number in nM and leave the unit unwritten.

| Molecule | Ki, nM |
| --- | --- |
| Cc1cc(NC(C)(C)c2ccc(OC(F)(F)F)cc2F)n2ncnc2n1 | 206 |

Now let's try a different one.
Query :: Data request, read-out Ki, for CC(C)(O)C(Nc1cc(C(F)F)nc2ncnn12)c1ccc(OC(F)(F)F)cc1F (single isomer, unassigned) [Example 186]
Result :: 1900

###

Entries annotated with measured Ki
Assayed target: human PDE2A1 (Homo sapiens, UniProt O00408)
Construct: GST; purchased BPS Bioscience (San Diego, Calif.) 60020; host or cells: insect cells
Measurement protocol: IMAP FP PDE selectivity panel, human PDE2A1
Assay type: biochemical
Condition description: Lab B; read-out: Human PDE2 Ki (nM) Lab B
Please respond with the number in nM and leave the unit unwritten.

| Compound | Ki, nM |
| --- | --- |
| CCOc1cc(N[C@@H](c2ccc(C(F)(F)F)c(F)c2)C(C)(C)C)n2ncnc2n1 | 1230 |
| Cc1cc(NC(c2ccc(OC(F)(F)F)cc2F)C(C)(C)O)n2nc(N)nc2n1 (stereo in doubt) | 6 |

Query :: Data request, read-out Ki, for `Cc1cc(NC2(c3ccc(C(F)(F)F)c(F)c3)CC2)n2nc(C(F)F)nc2n1`
Result :: 131

Query :: Entry `Cc1cc(N[C@H](C)c2ccc(C3CC3)c(F)c2)n2ncnc2n1` please
Result :: 48

###

Assayed target: human PDE2A1 (Homo sapiens)
Construct: GST; purchased BPS Bioscience (San Diego, Calif.) 60020; host or cells: insect cells
Measurement protocol: IMAP FP PDE selectivity panel, human PDE2A1
Type: biochemical
Condition description: Lab B; read-out: Human PDE2 Ki (nM) Lab B
Method: Selectivity for PDE2, as compared to other PDE families, was assessed using the IMAP® technology. Human PDE10A2 enzyme was prepared from cytosolic fractions of transiently transfected HEK cells. Assays for PDE 1 through 11 were performed in parallel at room temperature in 384-well microtiter plates with an incubation volume of 20.2 μL. […] The intrinsic PDE2 inhibitory activity of a compound which may be used in accordance with the present invention may be determined by these assays.
Ki under 30 nM gets Met, anything at or over 30 nM gets Not met.

| Compound | Assigned class |
| --- | --- |
| CCc1nc2nc(C)cc(N[C@@H](c3ccc(C(F)(F)F)c(F)c3)C(C)(C)C)n2n1 | Not met |

Query :: Consider the compound `Cc1cc(N[C@@H](c2ccc(SC(F)(F)F)c(F)c2)C2CC2)n2ncnc2n1` . Is its Ki strictly less than 30 nM?
Result :: Met

Query :: Entry `CCCc1nc2nc(C)cc(N[C@@H](c3ccc(C(F)(F)F)c(F)c3)C(C)(C)C)n2n1` please
Result :: Met

Query :: Entry Cc1cc(NC(c2ccc(OC(F)(F)F)cc2F)C(C)(C)O)n2nc(C)nc2n1 (single isomer, unassigned) [Example 134] please
Result :: Not met

Query :: Entry CC(C)(O)C(Nc1cc(C(F)(F)F)nc2ncnn12)c1ccc(SC(F)(F)F)cc1 (single isomer, unassigned) [Example 222] please
Result :: Met

Query :: Entry Cc1cc(NC(c2ccc(C(F)(F)F)cc2F)C(C)(C)O)n2ncnc2n1 (single isomer, unassigned) [Example 114] please
Result :: Not met

Query :: Entry `Cc1cc(NC2(c3ccc(SC(F)(F)F)cc3)CCC2)n2ncnc2n1` please
Result :: Not met

###

Entries annotated with measured Ki
Assayed target: human PDE2A1 (Homo sapiens, UniProt O00408)
Construct: GST; purchased BPS Bioscience (San Diego, Calif.) 60020; host or cells: insect cells
Measurement protocol: IMAP FP PDE selectivity panel, human PDE2A1
Type: biochemical
Condition description: Lab B; read-out: Human PDE2 Ki (nM) Lab B
Please respond with the number in nM and leave the unit unwritten.

Query :: Notebook entry, human PDE2A1 (Homo sapiens, UniProt O00408) assay: Ki of Cc1cc(N[C@@H](c2ccc(C(F)(F)F)cc2)[C@@H](C)O)n2ncnc2n1 [Example 89] = ?
Result :: 82

Query :: Entry OCCc1cc(NC2(c3ccc(C(F)(F)F)c(F)c3)CC2)n2ncnc2n1 [Example 251] please
Result :: 140

Query :: Entry CCc1nc2nc(C)cc(NC3(c4ccc(C(F)(F)F)c(F)c4)CC3)n2n1 [Example 193] please
Result :: 142

Query :: Entry Cc1cc(NC(c2ccc(C(F)F)cc2)C(C)(C)O)n2ncnc2n1 (single isomer, unassigned) [Example 109] please
Result :: 905

Query :: Entry CC(C)(C)[C@@H](Nc1cc(O)nc2ncnn12)c1ccc(C(F)(F)F)c(F)c1 [Example 238] please
Result :: 335

Query :: Entry CC(C)(O)C(Nc1cc(C(F)F)nc2ncnn12)c1ccc(C(F)(F)F)c(F)c1 (single isomer, unassigned) [Example 227] please
Result :: 7.6

Query :: Entry CC(C)(N)C(Nc1cc(C(F)(F)F)nc2ncnn12)c1ccc(C(F)(F)F)c(F)c1 (single isomer, unassigned) [Example 253] please
Result :: 83

Query :: Entry Cc1cc(NC2(c3ccc(OC(F)(F)F)c(F)c3)CC2)n2ncnc2n1 [Example 60] please
Result :: 32

###

Assayed target: human PDE2A1 (Homo sapiens, UniProt O00408)
Construct: GST; purchased BPS Bioscience (San Diego, Calif.) 60020; host or cells: insect cells
Measurement protocol: IMAP FP PDE selectivity panel, human PDE2A1
Type: biochemical
Condition description: Lab B; read-out: Human PDE2 Ki (nM) Lab B
Measured endpoint: Ki (nM)
Please respond with the number in nM and leave the unit unwritten.

Example entries begin here.
| Compound | Ki [nM] |
| --- | --- |
| Cc1cc(NC(C)(C)c2ccc(SC(F)(F)F)cc2)n2ncnc2n1 | 211 |
| Cc1cc(NC(c2ccc(C(F)(F)F)cc2F)C(C)(C)O)n2ncnc2n1 (single isomer, unassigned) [Example 115] | 23 |

Query :: Notebook entry, human PDE2A1 (Homo sapiens, UniProt O00408) assay: Ki of `CC(C)(O)[C@@H](Nc1cc(C(F)F)cc2ncnn12)c1ccc(S(F)(F)(F)(F)F)cc1` = ?
Result :: 7.8

Query :: Entry `C[C@@H](Nc1cnnc2ncnn12)c1ccc(S(F)(F)(F)(F)F)cc1` please
Result :: 1430

Query :: Entry `Cc1cc(NC2(c3ccc(C(F)(F)F)cc3)COC2)n2ncnc2n1` please
Result :: 167

Query :: Entry CC(C)(O)C(Nc1cc(C2CC2)nc2ncnn12)c1ccc(OC(F)(F)F)c(F)c1 (single isomer, unassigned) [Example 141] please
Result :: 877

###

Entries annotated with measured Ki
Assayed target: human PDE2A1 (Homo sapiens, UniProt O00408)
Construct: GST; purchased BPS Bioscience (San Diego, Calif.) 60020; host or cells: insect cells
Measurement protocol: IMAP FP PDE selectivity panel, human PDE2A1
Type: biochemical
Condition description: Lab B; read-out: Human PDE2 Ki (nM) Lab B
Experimental: Selectivity for PDE2, as compared to other PDE families, was assessed using the IMAP® technology. Human PDE10A2 enzyme was prepared from cytosolic fractions of transiently transfected HEK cells. Assays for PDE 1 through 11 were performed in parallel at room temperature in 384-well microtiter plates with an incubation volume of 20.2 μL. […] The intrinsic PDE2 inhibitory activity of a compound which may be used in accordance with the present invention may be determined by these assays.

Example entries begin here.
| Compound | Assayed target | Result |
| --- | --- | --- |
| CC(C)(O)C(Nc1cc(C(F)(F)F)nc2ncnn12)c1ccc(OC(F)(F)F)c(F)c1 (single isomer, unassigned) [Example 176] | human PDE2A1 (Homo sapiens, UniProt O00408) | ~1310 nM |
| Cc1cc(N[C@@H](c2ccc(OC(F)F)cc2)C(C)(C)C)n2ncnc2n1 [Example 33] | human PDE2A1 (Homo sapiens, UniProt O00408) | 17 nM |
| Fc1cc(C2(Nc3cc(C(F)(F)F)nc4ncnn34)CC2)ccc1C(F)(F)F [Example 82] | human PDE2A1 (Homo sapiens, UniProt O00408) | 10 nM |

Now let's try a different one.
Query :: Data request, read-out Ki, for OCc1cc(NC2(c3ccc(C(F)(F)F)c(F)c3)CC2)n2ncnc2n1 [Example 78]
Result :: 92 nM

###

Entries annotated with measured Ki
Assayed target: Rhesus PDE2A3 (Macaca mulatta)
Construct: made in house; host or cells: AD293 cells, transiently transfected with pcDNA3.3-TOPO; lysate supernatant used
Sequence (B3VTJ2 1-941): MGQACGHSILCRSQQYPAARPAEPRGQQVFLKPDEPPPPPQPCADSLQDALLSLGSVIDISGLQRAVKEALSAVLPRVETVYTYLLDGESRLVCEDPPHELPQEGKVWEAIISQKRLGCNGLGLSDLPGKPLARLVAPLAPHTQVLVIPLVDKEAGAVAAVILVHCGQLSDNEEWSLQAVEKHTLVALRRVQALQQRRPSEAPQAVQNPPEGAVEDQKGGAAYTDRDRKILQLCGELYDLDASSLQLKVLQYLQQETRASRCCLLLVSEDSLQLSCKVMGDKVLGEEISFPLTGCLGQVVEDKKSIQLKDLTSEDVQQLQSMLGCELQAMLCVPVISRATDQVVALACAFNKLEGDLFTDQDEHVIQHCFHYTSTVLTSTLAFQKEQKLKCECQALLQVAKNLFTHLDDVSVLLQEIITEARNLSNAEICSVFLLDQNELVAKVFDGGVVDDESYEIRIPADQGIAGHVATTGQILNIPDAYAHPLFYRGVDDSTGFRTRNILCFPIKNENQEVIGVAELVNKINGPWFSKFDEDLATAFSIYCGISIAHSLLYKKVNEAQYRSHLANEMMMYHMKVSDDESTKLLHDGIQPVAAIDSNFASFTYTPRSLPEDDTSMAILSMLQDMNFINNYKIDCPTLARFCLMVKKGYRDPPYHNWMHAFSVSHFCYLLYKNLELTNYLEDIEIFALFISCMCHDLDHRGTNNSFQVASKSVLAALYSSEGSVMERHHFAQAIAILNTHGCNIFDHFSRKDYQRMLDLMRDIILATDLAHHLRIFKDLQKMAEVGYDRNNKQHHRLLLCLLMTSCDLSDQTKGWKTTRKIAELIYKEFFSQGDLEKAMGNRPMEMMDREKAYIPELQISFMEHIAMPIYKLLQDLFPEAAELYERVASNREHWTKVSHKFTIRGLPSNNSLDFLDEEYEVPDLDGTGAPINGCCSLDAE
Measurement protocol: PDE2 fluorescence polarization (IMAP FP) inhibition assay, rhesus PDE2A3
Assay type: biochemical, rhesus macaque
Condition description: Lab A; read-out: Rhesus PDE2 Ki (nM) Lab A
Experimental: The activity of the compounds in accordance with the present invention as PDE2 inhibitors may be readily determined using a fluorescence polarization (FP) methodology (Huang, W., et al., J. Biomol Screen, 2002, 7: 215). In a typical experiment the PDE2 inhibitory activity of the compounds of the present invention was determined in accordance with the following experimental method. […] 0% of inhibition is determined by using DMSO (1% final concentrations). […]
Please respond with the number in nM and leave the unit unwritten.

| Molecule | Measured endpoint | Numeric readout |
| --- | --- | --- |
| CC(Nc1ccnc2ncnn12)c1ccc(OC(F)(F)F)cc1 (centres unmarked) [Example 84] | Ki | 2770 |

Now let's try a different one.
Query :: Data request, read-out Ki, for CC(Nc1ccnc2ncnn12)c1ccc(C(F)(F)F)cc1 (centres unmarked) [Example 83]
Result :: 4680
